FYI, the data here is from paper PMC9170038.

Overview of recorded pKd for various binders
target: MS2 coat protein, dlFG mutant (Escherichia phage MS2, UniProt P03612, del68-81insG); test: 4 mM Mg2+; L-tryptophan 2.4 mM; RNA-MaP array; 100 mM Tris-HCl pH 7.5, 80 mM KCl, 4 mM MgCl2, 0.1 mg/mL BSA, 1 mM DTT, 0.01 mg/mL yeast tRNA, 0.01% Tween-20; protein 1.5 nM to 3 uM; 37 C (Table S3); settings: chain copies: 2; label: tethered by stalled RNA polymerase
pKd: −log10 of the molar value.

Binder	pKd
Eterna 7627711 (Same State - Tryptophan B) (ssRNA) RNA: GGUUACUCUACGGCCGCCACUGAUUAAUUAUAAUCCUGUACAUAAACAUGAGGAUCACCCAUGUACAGGACCGGGUAGUGUAACC	7.54
Eterna 7730854 (Same State - Tryptophan A) (ssRNA) RNA: UACAUGAGGAUCACCCAUGUCCCAUGUGAACGAGGACCGGUACGGCCGCCACUCGACCGAGGCGGCACAUGAGGAUCACCCGCAU	5.80
